Compiled record: Ki values for Cannabinoid receptor 1 (Homo sapiens) across several sources.

- compound: "CCN(CC)c1ccc(CN(C(=O)Cc2ccccc2)[C@]23C[C@H]4C[C@H](C[C@H](C4)C2)C3)cc1"
  measuredOn: "Cannabinoid receptor 1 (Homo sapiens)"
  Ki: "> 20000 nM"
- compound: "CCC(C)/C=C(C)/C=C/C=C/C=C/C(=O)c1c(O)c(-c2ccc(O)cc2)c[nH]c1=O (stereo not given)"
  measuredOn: "Cannabinoid receptor 1 (Homo sapiens)"
  Ki: "> 1000 nM"
- compound: "O=C(N[C@@H]1CCCC[C@H]1O)c1cnc(OCc2ccccn2)c(-c2ccc(Cl)cc2)c1"
  measuredOn: "Cannabinoid receptor 1 (Homo sapiens)"
  Ki: "139 nM"
- compound: "Fc1ccc(C[C@@H]2CC[C@H](c3ccc(Cl)cc3)N(c3ccc(Cl)cc3)C2)cc1F (relative stereo)"
  measuredOn: "Cannabinoid receptor 1 (Homo sapiens)"
  Ki: "> 1640 nM"

Lab note: measured Ki of COc1ccc2c(c1)OC(C)(C)c1cn(CCN3CCN(C(=O)c4ccco4)CC3)nc1-2 was > 40000 nM

###

pKi: −log10 of the molar value.
Compiled record: pKi values for Cannabinoid receptor 1 (Homo sapiens) across several sources.
valueType: pKi

- compound: "O=S(=O)(NC1CCCCC1)NC1CCN(c2ncnc3c2nc(-c2ccccc2Cl)n3-c2ccc(Cl)cc2)CC1"
  pKi: 8.30

[A] Cc1c(C(=O)NCc2ccc(F)cc2)oc2ccc(S(=O)(=O)N3CC(C)CC(C)C3)cc12 (stereo not drawn)
[B] O=C(NN1CCCCC1)c1nc(-c2ccc(Cl)cc2Cl)n(-c2ccc(Cl)cc2)c1I
[C] O=C1C(c2ccccc2)N(c2ccccc2)C(=O)N1c1ccccc1 (stereo not drawn)
[D] Cc1c(C(=O)NN2CCCCC2)nn(-c2ccc(Cl)cc2Cl)c1-c1ccc(C#CCCOC(=O)CCCCCNC(=S)Nc2ccc3c(c2)C(=O)OC32c3ccc(O)cc3Oc3cc(O)ccc32)cc1
[E] Cc1ccc(-c2ncc(C(=O)Nc3ccccc3)nc2-c2ccc(C)cc2)cc1
Sort (5 compounds) by pKi: min first. I'd appreciate it if you listed the labels in the requested order. C, E, D, A, B
(C: 5.20, E: 6.29, D: 6.59, A: 7.21, B: 8.00)

[P] CCn1nc2c(-c3ccc(Cl)cc3)c(-c3ccncc3C)c(=O)n(Cc3ccc(C(F)(F)F)nc3C)n2c1=O
[Q] COC(=O)c1ccc(-c2ccc(-c3c(C)c(C(=O)NN4CCCCC4)nn3-c3ccc(Cl)cc3Cl)cc2)cc1
[R] CCCNC(=O)NC1CCN(c2ncnc3c2nc(-c2ccccc2Cl)n3-c2ccc(Cl)cc2)CC1
Sort (3 compounds) by pKi: min first. I'd appreciate it if you listed the labels in the requested order. Q, R, P
(Q: 6.88, R: 7.55, P: 8.08)

[I] Cc1cc(-c2ccccc2)n(Cc2ccccc2)c(=O)c1S(=O)(=O)c1ccccc1
[II] O=S(=O)(NC1CCN(c2ncnc3c2nc(-c2ccccc2Cl)n3-c2ccc(C(F)(F)F)nc2)CC1)c1ccccc1F
// select label with min value of measured pKi from [ I , II ] Write down the label attached to your selection. I

[a] Cc1cc(C)c(S(=O)(=O)NC(=N)N2CC(c3ccccc3)C(c3ccc(Cl)cc3)=N2)c(C)c1 (stereo not drawn)
[b] CC1CCN(C(=O)c2ccc3[nH]c4c(c3c2)CN(C2CCCC2)CC4)CC1
Of a and b , whose reported pKi is the larger number? Write down the label attached to your selection. a
(a: 7.62, b: 6.58)

[1] COc1ccc(-c2c(C#N)c(C(=O)NN3CCCCC3)nn2-c2ccc(F)cc2Cl)cc1
[2] Cc1c(C(=O)NN2CC3CCCC3C2)nc(-c2ccc(Cl)cc2Cl)n1-c1ccc(Cl)cc1 (stereo not drawn)
[3] CCn1nc2c(-c3ccc(Cl)cc3)c(-c3ccncc3F)c(=O)n(Cc3ccc(C(F)(F)F)nc3C)n2c1=O
Sort (3 compounds) by pKi: min first. I'd appreciate it if you listed the labels in the requested order. 2, 1, 3

[a] N#Cc1c(C(=O)NN2CCCCC2)nn(-c2ccc(Cl)cc2Cl)c1-c1ccc(Cl)cc1
[b] COc1ccc(S(=O)(=O)c2cc(OC)ccc2S(=O)(=O)c2ccc([C@H](C)NC(=O)Nc3ccc(C)cc3)cc2)cc1
[c] N#Cc1c(C(=O)NN2CCOCC2)nn(-c2ccc(Cl)cc2Cl)c1-c1ccc(I)cc1
[d] Fc1ccc(C[C@H]2CC[C@H](c3ccc(Cl)cc3)N(c3ccc(Cl)cc3Cl)C2)cc1F (relative stereo)
Sort (4 compounds) by pKi: min first. I'd appreciate it if you listed the labels in the requested order. b, d, c, a
(b: 4.00, d: 6.33, c: 6.88, a: 7.62)

[I] Cc1c(C(=O)NCCc2ccc(Cl)cc2)nn(-c2ccc(Cl)cc2Cl)c1-n1c(C)ccc1C
[II] O=S(=O)(NC1CCN(c2ncnc3c2nc(-c2ccccc2Cl)n3-c2ccc(OC(F)F)nc2)CC1)c1ccccc1F
// select label with min value of measured pKi from [ I , II ] Write down the label attached to your selection. I
(I: 7.52, II: 8.80)

###

Compiled record: Ki values for Cannabinoid receptor 1 (Homo sapiens) across several sources.
valueType: Ki (nM)

As a guide, the following entries are already answered.
- compound: "COc1ccc(CCNC(=O)c2nn(-c3ccc(Cl)cc3Cl)c(-n3c(C)ccc3C)c2C)cc1Cl"
  measuredOn: "Cannabinoid receptor 1 (Homo sapiens)"
  valueType: "Ki"
  experimentalResult: 112
- compound: "Cc1ccc(-c2ncc(C(=O)N[C@@H](CC(C)C)C(N)=O)nc2-c2ccc(C)cc2)cc1"
  measuredOn: "Cannabinoid receptor 1 (Homo sapiens)"
  valueType: "Ki"
  experimentalResult: 105
- compound: "O=C(N1CCCCC1)N1CCN(C(c2ccccc2)c2ccc(Cl)cc2Cl)CC1 (configuration not stated)"
  measuredOn: "Cannabinoid receptor 1 (Homo sapiens)"
  valueType: "Ki"
  experimentalResult: 56

[a] C/N=C(\NS(=O)(=O)c1ccccc1Cl)N1CC(c2ccccc2)C(c2ccc(Cl)cc2)=N1 (configuration not stated)
[b] CCCCCCc1nc(-c2ccc(Cl)cc2)n(-c2ccc(Cl)cc2Cl)n1
Of a and b , whose reported Ki is the larger number? Write down the label attached to your selection. b
(b: 829 nM, a: 75.4 nM)

[1] COc1ccc(C2c3cccn3-c3ccccc3N2C(=O)CN(C(=O)NC(C)(C)C)C(C)C)cc1 (configuration not stated)
[2] O=C(C1CCCC1)N1CCN(C(c2ccccc2)c2ccc(Cl)cc2Cl)CC1 (configuration not stated)
Of 1 and 2 , whose reported Ki is the larger number? Write down the label attached to your selection. 2

[P] CCn1nc2c(-c3ccc(Cl)cc3)c(-c3cnn(C)c3)c(=O)n(Cc3ccc(C#N)cc3)n2c1=O
[Q] CCn1nc2c(-c3ccc(Cl)cc3)c(-c3ccc(CO)nc3)c(=O)n(Cc3ccc(C(F)(F)F)nc3C)n2c1=O
// select label with min value of measured Ki from [ P , Q ] Write down the label attached to your selection. Q
(Q: 5 nM, P: 92 nM)

[P] CNC(=NS(=O)(=O)N1CCCCC1)N1CCC(c2ccccc2)C(c2ccc(Cl)cc2)=N1 (configuration not stated)
[Q] Cc1ccc(C(c2ccc(Cl)cc2Cl)N2CCN(C(=O)NC3CCCCC3)CC2)cc1 (configuration not stated)
[R] O=C(NC1CCCCC1)c1cn(-c2ccc(F)cc2)c(-c2ccccc2Cl)n1
[S] Cc1c(C(=O)NC2CCCCC2)nc(-c2ccc(Cl)cc2Cl)n1-c1ccc(Cl)cc1
[T] CCCCNC(=O)N1CCC(Nc2ncnc3c2nc(-c2ccccc2Cl)n3-c2ccc(Cl)cc2)CC1
Task field, ranking: reported Ki, descending order. I'd appreciate it if you listed the labels in the requested order. T, P, S, R, Q

[A] Cc1ccc(-c2n[nH]c(C(C)(C)C)n2)cc1S(=O)(=O)N1CCOCC1
[B] CCc1nc(C(F)(F)F)ccc1Cn1c(=O)c(-c2ccc(C#N)cc2)c(-c2ccc(Cl)cc2)c2nn(CC)c(=O)n21
[C] CCN(CC)c1ccc(CN(c2ncc(C)s2)S(=O)(=O)c2ccc(C)cc2)cc1
[D] Cc1c(C(=O)Nc2ccncc2)nn(-c2ccc(Cl)cc2Cl)c1-c1ccc(Cl)cc1
[E] O=S(=O)(NC[C@@H]1CC[C@@H](c2ccc(Cl)cc2Cl)N(c2ccc(Cl)cc2)C1)c1cccnc1
Sort (5 compounds) by Ki: min first. I'd appreciate it if you listed the labels in the requested order. B, E, D, C, A

[I] O=C(NCCC(c1ccccc1)c1ccccc1)C(c1ccccc1)c1ccc(O)cc1 (configuration not stated)
[II] CCCCNC(=O)N1CCN(C(c2ccccc2)c2ccccc2)CC1
[III] Cc1ccc(C(c2ccc(Cl)cc2Cl)N2CCN(C(=O)NN3CCCCC3)CC2)cc1 (configuration not stated)
Task field, ranking: reported Ki, descending order. I'd appreciate it if you listed the labels in the requested order. I, II, III
